Test system: RAW-Dual (murine macrophage reporter line)
Assay: NF-kB reporter (SEAP) activity fold change vs agonist alone; higher = enhanced NF-kB activity
Conditions: modulator concentration 10 µM; agonist: LPS 0.1 ug/mL
Use label 1 when the recorded NF-kB reporter is no lower than 1; use label 0 when it is lower.

> print(dat)
                                   molecule                           systemundertest      cat
1  CC(O)(CNC(=O)NCc1ccc(F)cc1)c1ccc(-c2ccccc2)cc1 (stereo unspecified)  RAW-Dual (murine macrophage reporter line)  label 1
2  C=CCN1C(=O)C(=C2SC(=S)N(C)C2=O)c2ccccc21  RAW-Dual (murine macrophage reporter line)  label 0
3  Br.O=S(=O)(c1ccc(-c2csc(Nc3ccc(Cl)cc3)n2)cc1)N1CCOCC1  RAW-Dual (murine macrophage reporter line)  label 1
4  CCCC(=O)Nc1ncnc2c1ncn2[C@@H]1O[C@@H]2OP(=O)([O-])OC[C@H]2[C@H]1OC(=O)CCC  RAW-Dual (murine macrophage reporter line)  label 1
5  CCN(CC)CCOC(=O)C(c1ccccc1)C1CCCCC1.Cl (stereo unspecified)  RAW-Dual (murine macrophage reporter line)  label 0
6     O=C(NC(=S)NNc1ccccc1)c1cc2ccccc2oc1=O  RAW-Dual (murine macrophage reporter line)  label 1
7  COC1CC2CCC(C1)N2S(=O)(=O)c1ccc(Br)cc1 (stereo unspecified)  RAW-Dual (murine macrophage reporter line)  label 1
8  CSCCC(NC(C)=O)C(=O)NC1CCN(c2nc(C)nc3c2CCCC3)CC1 (stereo unspecified)  RAW-Dual (murine macrophage reporter line)  label 1
9  Cc1cnc(NC(=O)C2=C(O)c3ccccc3S(=O)(=O)N2C)s1  RAW-Dual (murine macrophage reporter line)  label 1

---

Tested on: RAW-Dual (murine macrophage reporter line)
Assay: IRF reporter (Lucia luciferase) activity fold change vs agonist alone; higher = enhanced IRF activity
Details: modulator concentration 10 µM; agonist: MPLA […]
Use rule met when the recorded IRF reporter is no lower than 1; use rule not met when it is lower.

> print(dat)
                                    compound           cat
 1  CC(=O)N1CCN(c2ccc(OCC3COC(Cn4ccnc4)(c4ccc(Cl)cc4Cl)O3)cc2)CC1 (configuration not stated)      rule met
 2   CCOc1ccccc1NC(=O)Nc1ccc2c(c1)CC(=O)N2CC  rule not met
 3  FC(F)(F)c1ccnc(NC2CCN(c3ncnc4c3CCCC4)CC2)n1      rule met
 4  COc1ccc(-c2nc3cc(C4=NNC(=O)CC4C)ccc3[nH]2)cc1 (configuration not stated)      rule met
 5  COc1ccc(C=Nn2cnnc2)cc1COc1cc(C)c(Cl)cc1C(C)C      rule met
 6  O=C(NNC(=O)c1sc2cc(F)ccc2c1Cl)Nc1ccc(Cl)cc1      rule met
 7      O=C(NCc1cccc(Cl)c1)c1cnc2n(c1=O)CCS2      rule met
 8  Cc1cccc2sc(NNC(=O)c3ccc(S(=O)(=O)N4CCc5ccccc5C4)cc3)nc12  rule not met
 9  Cc1cc(OCC(=O)Nc2ccc(Cl)c(C(F)(F)F)c2)ccc1Cl      rule met
10  Br.NC(=O)C(c1ccccc1)(c1ccccc1)[C@@H]1CCN(CCc2ccc3c(c2)CCO3)C1      rule met
11  COc1ccc(-c2[nH]c3ccccc3c2SCCNC(=O)c2ccccc2)cc1      rule met
12                           N[C@@H]1CONC1=O      rule met
13  O=[N+]([O-])c1ccc(C=CC=Nc2ccc(-c3nc4ccccc4s3)c(O)c2)cc1  rule not met
14  COc1ccccc1C=C(C#N)c1nc(-c2cc3cc(Br)ccc3oc2=O)cs1      rule met
15  O=C(CSc1nc2c(c(=O)n1-c1ccccc1)SCC2)N1CCN(c2ccccc2)CC1  rule not met
16  CCN1CCN(Cc2c(O)ccc3c2OC(=Cc2ccc(C)cc2)C3=O)CC1      rule met
17  Cn1c2c(c3ccccc31)CCCC2NC=O (configuration not stated)      rule met
18  Cl.Cl.OCCN1CCN(CC/C=C2/c3ccccc3Sc3ccc(C(F)(F)F)cc32)CC1      rule met
19  COc1ccccc1-c1noc(C2CN(S(=O)(=O)N(C)C)C2)n1      rule met

---

Test system: RAW-Dual (murine macrophage reporter line)
Experiment: IRF reporter (Lucia luciferase) activity fold change vs agonist alone; higher = enhanced IRF activity
Details: modulator concentration 10 µM; agonist: LPS 0.1 ug/mL
Use criterion met when the recorded IRF reporter is no lower than 1; use criterion not met when it is lower.

> print(dat)
                                    compound                           systemundertest                cat
 1            CC(=O)c1ccc2c3c([nH]c2c1)CCCC3  RAW-Dual (murine macrophage reporter line)      criterion met
 2  CC(=O)N1CCN(c2ccc(OCC3COC(Cn4ccnc4)(c4ccc(Cl)cc4Cl)O3)cc2)CC1 (stereo not drawn)  RAW-Dual (murine macrophage reporter line)      criterion met
 3  COc1ccc(N2CC(C(=O)NCc3ccccc3C(F)(F)F)CC2=O)cc1 (stereo not drawn)  RAW-Dual (murine macrophage reporter line)      criterion met
 4  CN1c2ccccc2-c2ccccc2C12C=Cc1cc([N+](=O)[O-])ccc1O2 (stereo not drawn)  RAW-Dual (murine macrophage reporter line)      criterion met
 5  CC1CC(=O)C2=C(C1)OC(N)=C(C#N)C2c1ccc(Br)cc1 (stereo not drawn)  RAW-Dual (murine macrophage reporter line)  criterion not met
 6  C[C@@H](O)[C@H]1C(=O)N2C(C(=O)O)=C(SCCNC=N)C[C@H]12  RAW-Dual (murine macrophage reporter line)  criterion not met
 7  O=C(c1ccccc1)c1cc([N+](=O)[O-])ccc1N1CCOCC1  RAW-Dual (murine macrophage reporter line)      criterion met
 8                    Oc1ccc(N=Cc2ccccc2)cc1  RAW-Dual (murine macrophage reporter line)  criterion not met
 9  COc1ccc2c(C)nc(Nc3nc(C)cc(-c4ccccc4)n3)nc2c1  RAW-Dual (murine macrophage reporter line)      criterion met
10  COC(=O)CNC(c1ccccc1)c1cc(Br)ccc1NC(=O)c1ccccc1 (stereo not drawn)  RAW-Dual (murine macrophage reporter line)      criterion met
11                               C=CCNC(N)=S  RAW-Dual (murine macrophage reporter line)      criterion met
12  CCOC(=O)C(=NNc1ccccc1[N+](=O)[O-])C(=O)CSc1ccc(C)cc1  RAW-Dual (murine macrophage reporter line)      criterion met
13         CCOCC(=O)Nc1nc2c(C(F)(F)F)cccc2s1  RAW-Dual (murine macrophage reporter line)      criterion met
14           Cc1c(C(=O)NN)sc(-c2ccccc2)c1C#N  RAW-Dual (murine macrophage reporter line)      criterion met
15  COCCCOc1ccnc(CS(=O)c2nc3ccccc3[nH]2)c1C (stereo not drawn)  RAW-Dual (murine macrophage reporter line)      criterion met
16            c1ccc(CSc2nnc(-c3cccnc3)o2)nc1  RAW-Dual (murine macrophage reporter line)  criterion not met
17  CCCOc1ccc(C2NC(=O)NC(C)=C2C(=O)OC(C)C(C)(C)C)cc1OC (stereo not drawn)  RAW-Dual (murine macrophage reporter line)  criterion not met
18  Br.Fc1ccc(-c2csc(Nc3ccc4c(c3)OCO4)n2)cc1  RAW-Dual (murine macrophage reporter line)      criterion met
19  COc1ccc(-n2ncc3c(Nc4cc(OC)c(OC)c(OC)c4)ncnc32)cc1  RAW-Dual (murine macrophage reporter line)      criterion met
20  CN1CCN(C2=Nc3ccccc3Oc3ccc(Cl)cc32)CC1.O=C(O)CCC(=O)O  RAW-Dual (murine macrophage reporter line)  criterion not met
21  COC(=O)c1cccc(Nc2nc(C=Cc3ccccc3)nc3ccccc23)c1  RAW-Dual (murine macrophage reporter line)  criterion not met
22  O=C(CCCN1CC=C(n2c(=O)[nH]c3ccccc32)CC1)c1ccc(F)cc1  RAW-Dual (murine macrophage reporter line)  criterion not met

---

Test system: RAW-Dual (murine macrophage reporter line)
Test: viability score (confluency relative to resting cells, overnight) (fraction); higher = more viable, active = viable (0.7 or more)
Settings: modulator concentration 10 µM
recordedEndpoint: viability score

> print(dat)
                                    molecule  measurement
 1  CN(C)c1ccc(O)c2c1C[C@H]1C[C@H]3[C@H](N(C)C)C(O)=C(C(N)=O)C(=O)[C@@]3(O)C(O)=C1C2=O.Cl        0.999
 2  CCOC(=O)C1=C(COCCN)NC(C)=C(C(=O)OC)C1c1ccccc1Cl.O=S(=O)(O)c1ccccc1 (stereo unspecified)       0.0981
 3  O=S(=O)(NN=Cc1c[nH]c2ccccc12)c1ccc(Cl)cc1        0.962
 4  CC1=C(C(=O)Nc2cccc(C)n2)C(c2cccs2)C2=C(CC(C)(C)CC2=O)N1 (stereo unspecified)            1
 5  O=C(O)CC(C(=O)O)N1C(=O)C(=C2C(=O)Nc3ccc(Br)cc32)SC1=S (stereo unspecified)        0.995
 6  Cc1cc(OC2CN(C(=O)Cc3noc4ccccc34)C2)cc(=O)n1C1CC1        0.999
 7                     NS(=O)(=O)C#Cc1ccccc1          0.7
 8  COc1cc2nccc(Oc3ccc(NC(=O)C4(C(=O)Nc5ccc(F)cc5)CC4)cc3)c2cc1OC.O=C(O)C[C@H](O)C(=O)O        0.842
 9      Nc1nonc1C(=O)NN=Cc1cc(Br)c(O)c(Br)c1        0.997
10  CCCCCN(CCCCC)C(=O)C(CCC(=O)[O-])NC(=O)c1ccc(Cl)c(Cl)c1 (stereo unspecified)        0.832
11  OCCN(CCO)CC(O)Cn1c2ccc(Cl)cc2c2cc(Cl)ccc21 (stereo unspecified)       0.0946
12  Cc1cc(/C=C/C#N)cc(C)c1Nc1ccnc(Nc2ccc(C#N)cc2)n1        0.985
13  CNCCC(Oc1ccc(C(F)(F)F)cc1)c1ccccc1.Cl (stereo unspecified)        0.379
14  Nc1ncnc2c1ncn2[C@@H]1O[C@H](CO)[C@@H](O)[C@H]1O            1
15    O=C1C=C(c2c(O)ccc3ccccc23)c2ccccc2C1=O        0.556
16         Cc1oncc1CNC(=O)c1ccc(C(C)(C)C)cc1        0.996
17     O=C(NC(=S)NNc1ccccc1)c1cc2ccccc2oc1=O        0.999
18  CCC(=O)Nc1ccc(S(=O)(=O)N2CCSC(c3ccccc3C)CC2)c(C)c1 (stereo unspecified)        0.994
19  CC(C)c1cc(C(=O)N2Cc3ccc(CN4CCN(C)CC4)cc3C2)c(O)cc1O        0.762
20        CN1CCN(C(=O)N2CCC3(CC2)CC3(F)F)CC1        0.996
21  Cc1nc2n(c(=O)c1CCN1CCC(c3noc4cc(F)ccc34)CC1)CCCC2         1.01
